experiment: NCI Yeast Anticancer Drug Screen. Data for the mgt1 strain (AID 153); details: S. cerevisiae mgt1 mutant growth inhibition; at 100.0 µM
Compounds without any hit were thinned out: in the full panel of roughly 79,000, 15% have a hit. The source made the active and inactive calls. Cut-off read from the data, not from the text of the source: active = growth inhibition above about 70%; inactive = the rest.
Labels: t (active), f (inactive)

[
  {
    "Compound": "CSc1nc(=S)[nH]c2c1c(C)nn2-c1ccccc1",
    "Assigned label": "f"
  },
  {
    "Compound": "N#CN=Nc1cc(Cl)c(N=NC#N)cc1Cl",
    "Assigned label": "t"
  },
  {
    "Compound": "CNC1C(OC2C(OC3C(O)C(O)C(N=C(N)N)C(O)C3N=C(N)N)OC(C)C2(O)CO)OC(CO)C(O)C1O (centres undefined)",
    "Assigned label": "f"
  },
  {
    "Compound": "N#Cc1ccc(C2NN=CC23C(=O)c2ccccc2OC3c2ccccc2)cc1 (centres undefined)",
    "Assigned label": "f"
  }
]

###

Item-by-item account of growth inhibition
assay: NCI Yeast Anticancer Drug Screen. Data for the cln2 rad14 strain (AID 165);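 note: 0% = growth equal to vehicle treated cultures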; details: S. cerevisiae cln2 rad14 strain, at 50.0 µM (retest, dose inferred, filed as 5.0), stronger effect = higher value
Compounds without any hit were thinned out: in the full panel of roughly 79,000, 15% have a hit.

[
  {
    "Compound": "COc1ccc(NC(=S)N/N=C(\\c2ccccc2)c2ccccn2)cc1",
    "growth inhibition / %": 88
  },
  {
    "Compound": "CCN(CC)C(=S)N/N=C(/C)c1cccc(/C(C)=N\\NC(=S)N(CC)CC)n1",
    "growth inhibition / %": 91
  },
  {
    "Compound": "CC(C)c1ccccc1NC(=O)/C(Cl)=C(\\Cl)C(=O)O",
    "growth inhibition / %": 63
  },
  {
    "Compound": "CSC1=NNC(SC)=NN1",
    "growth inhibition / %": 99
  },
  {
    "Compound": "O=C(NC(Nc1ccc(F)c(Cl)c1)(C(F)(F)F)C(F)(F)F)C(C(F)(F)F)C(F)(F)F",
    "growth inhibition / %": 98
  },
  {
    "Compound": "Cc1ccc(S(=O)(=O)NC(=O)NC2=NC(C)(C)N(c3ccc(Cl)c(Cl)c3)C(N)=N2)cc1",
    "growth inhibition / %": 1
  },
  {
    "Compound": "CCCC/C=C/C(CC)(C(=O)OCC)C(=O)OCC",
    "growth inhibition / %": 24
  },
  {
    "Compound": "CCOC(=O)c1cc([N+](=O)[O-])cc([N+](=O)[O-])c1Sc1ncnc2nc[nH]c12",
    "growth inhibition / %": -16
  },
  {
    "Compound": "O=C1Nc2ccccc2/C1=C/COc1ccccc1",
    "growth inhibition / %": 99
  },
  {
    "Compound": "O=C1C=CC(=Nc2ccc3c(c2)Cc2cc(NC(=O)C(F)(F)F)ccc2-3)O1",
    "growth inhibition / %": 93
  },
  {
    "Compound": "Fc1ccc(NC(=S)SCc2ccc(Cl)c(Cl)c2)cc1F",
    "growth inhibition / %": 97
  },
  {
    "Compound": "c1ccc2c(c1)Oc1cccc3cccc-2c13",
    "growth inhibition / %": 20
  },
  {
    "Compound": "CCCN(CCC)CC(O)c1cc(-c2ccc(Cl)cc2)nc2c(C)c(Cl)ccc12 (configuration not stated)",
    "growth inhibition / %": 93
  },
  {
    "Compound": "Cc1ccc2ccc3cccc4ccc1c2c34",
    "growth inhibition / %": 6
  },
  {
    "Compound": "O=c1ssc2ncccc12",
    "growth inhibition / %": 90
  },
  {
    "Compound": "CCc1ccc(NS(=O)(=O)c2ccccc2)c([N+](=O)[O-])c1",
    "growth inhibition / %": 20
  },
  {
    "Compound": "Cc1ccc(Nc2nc3c(=O)n(C)c(=O)n(C)c3nc2Nc2ccc(C)cc2)cc1",
    "growth inhibition / %": 11
  },
  {
    "Compound": "O=C(/C=C\\c1ccc(Cl)cc1Cl)c1cccs1",
    "growth inhibition / %": 27
  },
  {
    "Compound": "O=[N+]([O-])c1cc(CCl)ccc1CCl",
    "growth inhibition / %": 97
  },
  {
    "Compound": "OC1CCCc2c1cc1ccc3cccc4ccc2c1c34 (configuration not stated)",
    "growth inhibition / %": 94
  },
  {
    "Compound": "Cc1ccc(Cl)c2[nH]c(-c3ccccc3)cc(=O)c12",
    "growth inhibition / %": -2
  },
  {
    "Compound": "CC(C)/C(Cl)=N\\OC(=O)Nc1ccc(F)cc1",
    "growth inhibition / %": 29
  }
]

###

assay: NCI Yeast Anticancer Drug Screen. Data for the wt1 strain (AID 149);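 note: 0% = growth of vehicle-treated wt1 cultures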; settings: S. cerevisiae wt1 strain (SPY 50644) growth inhibition; at 100.0 µM
About 79,000 compounds went through this panel and 15% of them were active in at least one assay; those are over-represented in the sample as a whole. Active and inactive are the calls of the source. Rule as the data show it: active = growth inhibition above about 70%; inactive = the rest.
Outcomes: T = active, F = inactive

[
  {
    "Compound": "CCCCc1cc(O)ccc1O",
    "Assigned label": "F"
  },
  {
    "Compound": "CC(C)(C)c1nc2c(o1)C(=O)c1ccccc1C2=O",
    "Assigned label": "T"
  },
  {
    "Compound": "O=[N+]([O-])c1cccc([N+](=O)[O-])c1S(=O)(=O)c1ccccc1",
    "Assigned label": "T"
  },
  {
    "Compound": "Cc1cccc2c(C(O)CBr)cc(-c3ccc(Cl)cc3)nc12 (stereo unspecified)",
    "Assigned label": "T"
  },
  {
    "Compound": "CCC(=O)c1cccc2ccccc12",
    "Assigned label": "F"
  },
  {
    "Compound": "COc1cc2c3c(cccc3c1)C(=O)N(CCN(C)C)C2=O",
    "Assigned label": "F"
  },
  {
    "Compound": "OC(COc1cccc2ccccc12)CN1CCOCC1 (stereo unspecified)",
    "Assigned label": "F"
  },
  {
    "Compound": "CN(C)CCOc1ccc2c(c1)C/C(=C/c1ncc([N+](=O)[O-])n1C)C2=O",
    "Assigned label": "F"
  },
  {
    "Compound": "NNc1c(F)c(F)cc(F)c1F",
    "Assigned label": "F"
  },
  {
    "Compound": "COc1ccc(O)c(/C=N\\Nc2ccccc2)c1",
    "Assigned label": "F"
  },
  {
    "Compound": "Cc1nc(-[n+]2nc(-c3ccncc3)nn2-c2ccccc2)sc1C",
    "Assigned label": "F"
  }
]

###

experiment: NCI Yeast Anticancer Drug Screen. Data for the rad14 strain (AID 159);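 note: 0% = growth of vehicle-treated control cultures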; details: S. cerevisiae rad14 strain growth inhibition; at 3.7 µM; stronger effect = higher value
Compounds without any hit were thinned out: in the full panel of roughly 79,000, 15% have a hit. Active and inactive are the calls of the source. No stated cut-off is given here; in the data, active means growth inhibition above about 70%; inactive means the rest.
Measurement name: growth inhibition

[
  {
    "Compound": "O=C(NCCCCNCCCNC(=O)c1cc(-c2ccccc2)nc2ccccc12)c1cc(-c2ccccc2)nc2ccccc12",
    "Measurement name": "growth inhibition",
    "Observed value": "-2% (inactive)"
  },
  {
    "Compound": "CNC(=O)OCc1c(COC(=O)NC)c(-c2ccc(Cl)c(Cl)c2)n2c1CCC2",
    "Measurement name": "growth inhibition",
    "Observed value": "-36% (inactive)"
  },
  {
    "Compound": "COC1=CC(=O)C(C2(OC(C)C)OC(=O)C(Cl)=C2Cl)=CC1=O (stereo not drawn)",
    "Measurement name": "growth inhibition",
    "Observed value": "37% (inactive)"
  }
]

###

assay: NCI Yeast Anticancer Drug Screen. Data for the cln2 rad14 strain (AID 165);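 note: 0% = growth equal to vehicle treated cultures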; settings: S. cerevisiae cln2 rad14 strain, at 5.0 µM (retest, dose inferred, filed as 0.5), stronger effect = higher value
About 79,000 compounds went through this panel and 15% of them were active in at least one assay; those are over-represented in the sample as a whole.
Classify as follows. Reported growth inhibition greater than or equal to 20%: criterion met. Reported growth inhibition below: criterion not met.

[
  {
    "Molecule": "C[CH2][Sn]([CH2]C)([O]C(=O)C(OC(C)=O)c1ccccc1)[O]C(=O)C(OC(C)=O)c1ccccc1 (stereo not drawn)",
    "Assigned label": "criterion not met"
  },
  {
    "Molecule": "O=C1C=CC(=O)c2c(O)c(Nc3ccc(OC(F)(F)F)cc3)c(Cl)c(O)c21",
    "Assigned label": "criterion not met"
  },
  {
    "Molecule": "CN(C)CCn1c2c3ccccc3ccc2c2oc(=O)c3ccccc3c21",
    "Assigned label": "criterion not met"
  },
  {
    "Molecule": "COC(=O)c1ccc(CCC2=CC(=O)C(Br)=CC2=O)cc1",
    "Assigned label": "criterion not met"
  },
  {
    "Molecule": "Oc1ccc(NCn2c(=S)sc3ccccc32)cc1",
    "Assigned label": "criterion met"
  },
  {
    "Molecule": "CC[C@@]1(O)C(=O)OCc2c1cc1n(c2=O)Cc2cc3c(N)cccc3nc2-1",
    "Assigned label": "criterion met"
  },
  {
    "Molecule": "CCc1ncnc2cc(OCC3CO3)c(OC)cc12 (stereo not drawn)",
    "Assigned label": "criterion not met"
  },
  {
    "Molecule": "COc1ccc2ccc3ccccc3c2c1C=O",
    "Assigned label": "criterion not met"
  }
]

Ref: PubChem BioAssay (NCI)
